# assayed-target: NLRP3 (Homo sapiens, UniProt Q96P20)
# Sequence (Q96P20 whole entry): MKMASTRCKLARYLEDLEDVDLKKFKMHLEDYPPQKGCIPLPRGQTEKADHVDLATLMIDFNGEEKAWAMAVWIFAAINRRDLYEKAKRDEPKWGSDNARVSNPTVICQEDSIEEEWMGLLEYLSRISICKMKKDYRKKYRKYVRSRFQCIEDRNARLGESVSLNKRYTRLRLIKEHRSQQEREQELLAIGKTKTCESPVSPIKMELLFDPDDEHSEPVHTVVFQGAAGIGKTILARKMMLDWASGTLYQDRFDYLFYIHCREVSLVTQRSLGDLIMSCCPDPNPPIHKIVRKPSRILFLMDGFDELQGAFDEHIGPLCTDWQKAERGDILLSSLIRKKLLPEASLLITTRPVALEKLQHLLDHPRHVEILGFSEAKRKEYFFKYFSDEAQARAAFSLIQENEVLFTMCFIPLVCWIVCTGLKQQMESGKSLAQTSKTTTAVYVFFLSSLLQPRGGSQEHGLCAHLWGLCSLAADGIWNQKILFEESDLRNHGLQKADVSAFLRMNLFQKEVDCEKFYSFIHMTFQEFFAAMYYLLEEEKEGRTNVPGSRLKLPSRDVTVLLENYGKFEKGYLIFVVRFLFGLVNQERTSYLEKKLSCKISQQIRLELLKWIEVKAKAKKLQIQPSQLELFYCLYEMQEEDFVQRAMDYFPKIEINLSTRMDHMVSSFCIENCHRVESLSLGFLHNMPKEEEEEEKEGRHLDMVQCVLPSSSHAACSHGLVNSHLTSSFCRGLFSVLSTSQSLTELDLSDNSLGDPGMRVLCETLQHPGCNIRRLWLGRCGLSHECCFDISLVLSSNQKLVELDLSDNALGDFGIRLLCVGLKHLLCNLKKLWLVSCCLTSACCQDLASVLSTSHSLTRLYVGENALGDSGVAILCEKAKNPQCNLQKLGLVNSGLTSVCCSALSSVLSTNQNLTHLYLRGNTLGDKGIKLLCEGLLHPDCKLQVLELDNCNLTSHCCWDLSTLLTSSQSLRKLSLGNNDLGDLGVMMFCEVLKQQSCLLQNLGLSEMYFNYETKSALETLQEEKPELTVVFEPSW
# assay-details: THP-1 cells pyroptosis assay
# Type: cell-based
# Design: Seed THP-1 cells (25,000cells/well) containing 1.0 μg/ml LPS in 40 μl of RPMI medium; host or cells: THP-1 cells
# experimental-setup: LPS 1 μg/ml, nigericin 5 μM, resazurin readout
Counter-ions that a name gives are not always drawn.
observable: IC50

Documented IC50 of Cc1nc(C(C)C)c(NC(=O)NS(=O)(=O)c2ccn(C3CC3)n2)n1-c1ccncc1 [Example 47] : 250 to 500 nM

Documented IC50 of Cc1cc2c(c(NC(=O)NS(C)(=O)=O)c1-c1ccnc(OC3CCN(C)CC3)c1)CCC2 [Example 28] : ≤ 250 nM

Documented IC50 of COc1cc(-c2c(C)cc3c(c2NC(=O)NS(C)(=O)=O)CCC3)ccn1 [Example 40, sodium salt] : ≤ 250 nM

Documented IC50 of COc1cc(-c2c(C3CC3)cc3c(c2NC(=O)NS(C)(=O)=O)CCC3)ccn1 [Example 34] : ≤ 250 nM

Documented IC50 of COCC(C)Oc1cc(-c2c(C)cc3c(c2NC(=O)NS(C)(=O)=O)CCC3)ccn1 (centres unmarked) [Example 25] : ≤ 250 nM

###

Would you mind telling me the reported IC50 of each entry?
# assayed-target: NLRP3 (Homo sapiens, UniProt Q96P20)
# assay-details: THP-1 cells pyroptosis assay
# Format: cell-based
# Parameters: Seed THP-1 cells (25,000cells/well) containing 1.0 μg/ml LPS in 40 μl of RPMI medium; host or cells: THP-1 cells
# experimental-setup: LPS 1 μg/ml, nigericin 5 μM, resazurin readout

Here `Cc1cc2c(c(NC(=O)NS(C)(=O)=O)c1-c1ccncc1)CCC2` was tested on NLRP3 (Homo sapiens, UniProt Q96P20), and its IC50 came to ≤ 250 nM

Here `COc1cc(-c2c(C)cc3c(c2NC(=O)NS(=O)(=O)c2ccccc2)CCC3)ccn1` was tested on NLRP3 (Homo sapiens, UniProt Q96P20), and its IC50 came to ≤ 250 nM

Here `Cc1cc(-c2c(C)cc3c(c2NC(=O)NS(C)(=O)=O)CCC3)ccn1` was tested on NLRP3 (Homo sapiens, UniProt Q96P20), and its IC50 came to 500 to 1000 nM

Here `Cc1cc2c(c(NC(=O)NS(=O)(=O)C3CC3)c1-c1ccnc(OC3CCN(C)CC3)c1)CCC2` was tested on NLRP3 (Homo sapiens, UniProt Q96P20), and its IC50 came to ≤ 250 nM

Here `Cc1cc2c(c(NC(=O)NS(=O)(=O)c3ccccc3)c1-c1ccnc(OC3CCN(C)CC3)c1)CCC2` was tested on NLRP3 (Homo sapiens, UniProt Q96P20), and its IC50 came to ≤ 250 nM

Here `COc1cc(-c2c(C)c(F)cc(C(C)C)c2NC(=O)NS(=O)(=O)c2ccn(C3CC3)n2)ccn1` was tested on NLRP3 (Homo sapiens, UniProt Q96P20), and its IC50 came to ≤ 250 nM

Here `Cc1cc2c(c(NC(=O)NS(C)(=O)=O)c1-c1ccnc(OC3CC3)c1)CCC2` was tested on NLRP3 (Homo sapiens, UniProt Q96P20), and its IC50 came to ≤ 250 nM

Here `COc1cc(-c2c(C)c(F)cc(C(C)C)c2NC(=O)NS(C)(=O)=O)ccn1` was tested on NLRP3 (Homo sapiens, UniProt Q96P20), and its IC50 came to 250 to 500 nM

###

Would you mind telling me the reported IC50 of each entry?
# assayed-target: NLRP3 (Homo sapiens)
# assay-details: Human whole blood IL-1β release assay
# Format: cell-based
# Set-up: Human whole blood in Li-heparin tubes was obtained from healthy donors from a volunteer donor panel; from tissue; host or cells: human whole blood from healthy donors
# experimental-setup: LPS 1 μg/ml, nigericin 10 μM, IL-1β AlphaLisa, read-out: HWB IC50

Here Cc1cc2c(c(NC(=O)NS(=O)(=O)c3cc(C(C)(C)O)co3)c1-c1ccnc(OC3CCN(C)CC3)c1)CCC2 [Example 45] was tested on NLRP3 (Homo sapiens), and its IC50 came to 0.5 to 1 µM

Here Cc1cc2c(c(NC(=O)NS(C)(=O)=O)c1-c1ccnc(O[C@H]3CC[C@@H](O)CC3)c1)CCC2 [Example 6] was tested on NLRP3 (Homo sapiens), and its IC50 came to ≤ 0.25 µM

Here COCC(C)Oc1cc(-c2c(C)cc3c(c2NC(=O)NS(C)(=O)=O)CCC3)ccn1 (stereo not shown) [Example 25] was tested on NLRP3 (Homo sapiens), and its IC50 came to 0.25 to 0.5 µM

Here Cc1cc2c(c(NC(=O)NS(C)(=O)=O)c1-c1ccnc(OC3CCCCC3)c1)CCC2 [Example 16] was tested on NLRP3 (Homo sapiens), and its IC50 came to 1 to 2 µM

Here CCc1c(F)cc(C(C)C)c(NC(=O)NS(C)(=O)=O)c1-c1ccnc(OC)c1 [Example 38] was tested on NLRP3 (Homo sapiens), and its IC50 came to 1 to 2 µM

Here COc1cc(-n2c(C)nc(C(C)C)c2NC(=O)NS(=O)(=O)c2cc(C(C)(C)O)co2)ccn1 [Example 48] was tested on NLRP3 (Homo sapiens), and its IC50 came to 0.25 to 0.5 µM

Here Cc1cc2c(c(NC(=O)NS(C)(=O)=O)c1-c1ccnc(C#N)c1)CCC2 [Example 36] was tested on NLRP3 (Homo sapiens), and its IC50 came to 0.5 to 1 µM

Here COc1cc(-c2c(C)c(F)cc(C(C)C)c2NC(=O)NS(C)(=O)=O)ccn1 [Example 7] was tested on NLRP3 (Homo sapiens), and its IC50 came to 0.5 to 1 µM

Here COc1cc(-c2c(C3CC3)cc3c(c2NC(=O)NS(C)(=O)=O)CCC3)ccn1 [Example 34] was tested on NLRP3 (Homo sapiens), and its IC50 came to 1 to 2 µM

Here Cc1cc(-c2c(C)cc3c(c2NC(=O)NS(C)(=O)=O)CCC3)ccn1 [Example 1] was tested on NLRP3 (Homo sapiens), and its IC50 came to 0.5 to 1 µM

Data provenance: patent US20220106288A1
